target: Lethal factor (Bacillus anthracis); assay: Lethal factor protease inhibitors, Bacillus anthracis, multiplex microsphere cleavage assay, validation set (AID 588461); conditions: flow cytometry, at 10 µM, hits give high values
Let's look at some compounds and their measured inhibition.
Endpoint label: inhibition (%)

# Compound, Result
records = [
    ("C[C@]12CCC3C(CC=C4C[C@@H](O)CC[C@@]43C)C1CCC2[C@]1(C)CCC(=O)O1 (stereo partly specified)", -5.1),
    ("C[C@]12CCC(=O)C(O)=C1CC[C@@H]1[C@@H]2CC[C@]2(C)C(=O)CC[C@@H]12", -6.6),
    ("CN1CCCN(C(c2ccccc2)c2ccc(Cl)cc2)CC1 (stereo unspecified)", -8.8),
    ("CC12CN3CC(C)(CN(C1)C3c1ccc(Cl)cc1Cl)C2=O (stereo unspecified)", 0.1),
    ("COc1cc(NC(=O)COc2ccccc2)c(OC)cc1NC(C)=O", -8.3),
    ("COc1ccc(NS(=O)(=O)c2ccc(N)cc2)nn1", -0.1),
    ("O=C(Nc1nc2ccccc2s1)c1ccc(F)cc1", -5.8),
    ("COc1cccc2c(=O)c(C/C=C(/C)Cl)c(C)[nH]c12", 3.4),
    ("O=C(Nc1ccc(C(=O)NC2CCCCC2)cc1)c1cccnc1", -12.6),
    ("O=c1n(CCCN2CCN(c3cccc(Cl)c3)CC2)nc2ccccn12", -1.3),
    ("Cc1cccc(Nc2ncccc2C(=O)O)c1C", -4.7),
]

---

test system: Botulinum neurotoxin type F light chain protease (Clostridium botulinum); assay: Botulinum neurotoxin type F light chain protease inhibition, multiplex microsphere flow cytometry, validation set (AID 588459); settings: multiplex microsphere protease substrate cleavage assay, at 10 µM, hits give high values
Endpoint label: inhibition (%)

# Molecule, Target under test, Result
data = [
    ("CCn1c(O)c(/C=C2\\C=Nc3ccccc32)sc1=O", "Botulinum neurotoxin type F light chain protease (Clostridium botulinum)", 2.3),
    ("CCOC(=O)C1(Cc2cccc(Cl)c2)CCCN(C2CCN(C(C)=O)CC2)C1 (centres undefined)", "Botulinum neurotoxin type F light chain protease (Clostridium botulinum)", 9.1),
    ("COc1c2c(nc3occc13)C(CC=C(C)C)(OC)C(O)CC2 (centres undefined)", "Botulinum neurotoxin type F light chain protease (Clostridium botulinum)", 0.8),
    ("O=C(COc1ccccc1)Nc1ccc2c(c1)C(=O)N(CC1CCCO1)C2=O (centres undefined)", "Botulinum neurotoxin type F light chain protease (Clostridium botulinum)", -0.5),
    ("C[C@H]1CCCC(=O)CCC/C=C/c2cc(O)cc(O)c2C(=O)O1", "Botulinum neurotoxin type F light chain protease (Clostridium botulinum)", 5.6),
    ("N=c1c[n+](N2CCOCC2)[n-]o1", "Botulinum neurotoxin type F light chain protease (Clostridium botulinum)", -6.3),
    ("Cc1cccc(C)c1NS(=O)(=O)c1ccc(NC(=O)c2ccc(Cl)c([N+](=O)[O-])c2)cc1", "Botulinum neurotoxin type F light chain protease (Clostridium botulinum)", 2.3),
    ("O=C1[C@@H]2CSCN2C(=O)CN1Cc1ccc(F)cc1", "Botulinum neurotoxin type F light chain protease (Clostridium botulinum)", 1.2),
    ("Cc1ccccc1NC(=O)C1c2ccccc2Oc2ccccc21", "Botulinum neurotoxin type F light chain protease (Clostridium botulinum)", 0.4),
    ("O=C(CNC(=O)OCc1ccccc1)Oc1cc2oc(=O)cc(-c3ccccc3)c2cc1Cl", "Botulinum neurotoxin type F light chain protease (Clostridium botulinum)", 2.7),
    ("Cc1cccc(N2C(=O)C3C(c4ccccc4)OC4(C(=O)c5ccccc5C4=O)C3C2=O)c1 (centres undefined)", "Botulinum neurotoxin type F light chain protease (Clostridium botulinum)", 4.6),
    ("CC(=O)OC(CC(=O)O)C[N+](C)(C)C (centres undefined)", "Botulinum neurotoxin type F light chain protease (Clostridium botulinum)", 3.4),
    ("O=C(c1cc2cc(Br)ccc2o1)N1CCCCC1", "Botulinum neurotoxin type F light chain protease (Clostridium botulinum)", 5.3),
    ("C[N+]1(C2CCC3CCCC2C3O)CCCCC1 (centres undefined)", "Botulinum neurotoxin type F light chain protease (Clostridium botulinum)", 1.7),
    ("COC(=O)C1=C(C)N(C)C(=S)NC1c1ccc(Cl)cc1 (centres undefined)", "Botulinum neurotoxin type F light chain protease (Clostridium botulinum)", -0.7),
    ("O=C(NCc1ccc2c(c1)OCO2)c1ccc2c(c1)OCCO2", "Botulinum neurotoxin type F light chain protease (Clostridium botulinum)", 2),
    ("COc1ccc(CN(C)CCc2ccccn2)cc1OC", "Botulinum neurotoxin type F light chain protease (Clostridium botulinum)", -2.7),
    ("COc1ccc2c(c1)C(=O)CC(c1ccccc1F)O2 (centres undefined)", "Botulinum neurotoxin type F light chain protease (Clostridium botulinum)", 1.4),
    ("Oc1[nH]c2ccccc2c1N=Nc1ccccc1", "Botulinum neurotoxin type F light chain protease (Clostridium botulinum)", -2.7),
    ("CC(=O)C1=C(O)C(=O)N(Cc2cccnc2)C1c1ccc(C(C)C)cc1 (centres undefined)", "Botulinum neurotoxin type F light chain protease (Clostridium botulinum)", 3.2),
    ("CC(COc1ccccc1)NC(C)C(O)c1ccc(O)cc1 (centres undefined)", "Botulinum neurotoxin type F light chain protease (Clostridium botulinum)", -1.7),
    ("COC(=O)c1[nH]c(=O)c2ccccc2c1O", "Botulinum neurotoxin type F light chain protease (Clostridium botulinum)", 0.4),
    ("Clc1ccc(COC(Cn2ccnc2)c2ccc(Cl)cc2Cl)cc1 (centres undefined)", "Botulinum neurotoxin type F light chain protease (Clostridium botulinum)", -1.3),
    ("COc1ccc2c(CC(=O)NCC3CCC(C(=O)O)CC3)cc(=O)oc2c1 (centres undefined)", "Botulinum neurotoxin type F light chain protease (Clostridium botulinum)", 1),
]

---

biological target: Integrin beta-1 (Homo sapiens) + Integrin alpha-4 (Homo sapiens) (UniProt P13612+P05556); assay: inhibition of HUTS-21 binding to VLA-4, pilot screen, VLA-4 allosteric modulator project, U937 cells, HUTS-21 mAb, flow cytometry, validation set (AID 2674); conditions: HUTS-21 LIBS mAb binding, at 6.7 µM, hits give high values;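 note: antibody binding induced by the VLA-4 ligand LDV present at three times its Kd; 0% = LDV ligand with antibody and no compound and 100% = antibody without LDV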
Sequence (P05556 whole entry, looked up): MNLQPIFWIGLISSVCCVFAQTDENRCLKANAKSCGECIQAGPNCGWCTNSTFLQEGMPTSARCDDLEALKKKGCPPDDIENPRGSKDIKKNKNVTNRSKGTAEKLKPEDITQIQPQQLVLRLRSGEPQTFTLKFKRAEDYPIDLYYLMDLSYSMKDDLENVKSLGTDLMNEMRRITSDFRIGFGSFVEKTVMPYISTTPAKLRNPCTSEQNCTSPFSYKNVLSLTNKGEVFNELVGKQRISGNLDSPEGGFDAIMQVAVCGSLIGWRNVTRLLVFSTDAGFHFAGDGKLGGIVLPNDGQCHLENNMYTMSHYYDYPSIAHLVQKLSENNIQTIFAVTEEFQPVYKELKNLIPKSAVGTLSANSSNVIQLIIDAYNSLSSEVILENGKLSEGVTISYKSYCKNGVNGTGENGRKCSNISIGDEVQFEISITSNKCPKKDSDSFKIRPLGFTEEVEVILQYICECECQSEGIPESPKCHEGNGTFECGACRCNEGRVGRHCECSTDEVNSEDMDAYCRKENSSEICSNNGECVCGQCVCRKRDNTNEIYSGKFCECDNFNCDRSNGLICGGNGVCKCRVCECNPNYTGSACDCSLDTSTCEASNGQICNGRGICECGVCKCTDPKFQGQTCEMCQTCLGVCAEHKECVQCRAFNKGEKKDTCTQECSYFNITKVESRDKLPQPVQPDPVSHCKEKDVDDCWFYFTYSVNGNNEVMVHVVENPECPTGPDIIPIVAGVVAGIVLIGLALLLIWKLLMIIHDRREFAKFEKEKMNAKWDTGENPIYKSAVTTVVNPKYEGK
Sequence (P13612 whole entry, looked up): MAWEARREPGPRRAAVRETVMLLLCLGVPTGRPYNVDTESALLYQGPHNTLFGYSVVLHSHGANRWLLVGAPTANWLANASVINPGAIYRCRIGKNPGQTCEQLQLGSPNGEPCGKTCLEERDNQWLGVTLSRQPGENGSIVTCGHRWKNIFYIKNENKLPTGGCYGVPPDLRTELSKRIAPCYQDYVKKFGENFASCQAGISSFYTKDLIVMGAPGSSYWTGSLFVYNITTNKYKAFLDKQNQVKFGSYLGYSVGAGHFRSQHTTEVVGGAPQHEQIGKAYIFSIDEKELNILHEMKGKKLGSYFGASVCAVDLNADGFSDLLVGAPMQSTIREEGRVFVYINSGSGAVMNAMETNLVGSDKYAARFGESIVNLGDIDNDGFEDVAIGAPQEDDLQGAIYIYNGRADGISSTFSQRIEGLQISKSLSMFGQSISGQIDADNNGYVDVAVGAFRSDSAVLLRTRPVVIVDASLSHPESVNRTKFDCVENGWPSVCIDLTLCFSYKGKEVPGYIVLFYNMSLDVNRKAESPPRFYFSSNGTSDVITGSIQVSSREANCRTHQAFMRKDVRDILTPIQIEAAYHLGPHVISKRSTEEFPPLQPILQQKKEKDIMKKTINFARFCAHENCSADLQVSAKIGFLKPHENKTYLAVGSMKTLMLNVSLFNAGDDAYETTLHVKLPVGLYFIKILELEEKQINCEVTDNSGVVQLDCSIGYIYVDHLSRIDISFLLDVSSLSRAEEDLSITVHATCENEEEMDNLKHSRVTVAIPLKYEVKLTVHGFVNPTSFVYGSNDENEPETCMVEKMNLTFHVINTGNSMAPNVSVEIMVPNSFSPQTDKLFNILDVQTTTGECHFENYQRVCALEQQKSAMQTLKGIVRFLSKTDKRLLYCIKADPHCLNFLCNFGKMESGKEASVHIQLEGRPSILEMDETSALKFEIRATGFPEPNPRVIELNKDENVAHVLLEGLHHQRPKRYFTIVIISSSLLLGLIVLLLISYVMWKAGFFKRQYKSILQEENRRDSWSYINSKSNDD
Let's look at some compounds and their measured inhibition.

# Compound, Unit descriptor, inhibition
measured = [
    ("COP(=O)(OC)C(O)C(Cl)(Cl)Cl (configuration not stated)", "%", 9.92),
    ("C[C@]12CCC(=O)C(O)=C1CC[C@@H]1[C@@H]2CC[C@]2(C)C(=O)CC[C@@H]12", "%", 10.3),
    ("CC(=O)OC1C2CCC1C(N1CCCC1)CC2 (configuration not stated)", "%", 9.1),
    ("O=C(O)CCCc1ccc(N(CCCl)CCCl)cc1", "%", 23.1),
    ("CCOC(=O)C(C)Oc1cc(C)cc2oc(=O)c3c(c12)CCCC3 (configuration not stated)", "%", 0.64),
    ("CC(=O)Nc1cc([As](=O)(O)O)ccc1O", "%", 0.59),
    ("O=C1NC(=O)C2(Cc3ccccc3N3CCCC32)C(=O)N1c1ccc(Cl)cc1 (configuration not stated)", "%", 14.1),
    ("c1ccc2c(c1)OCC(C1=NCCN1)O2 (configuration not stated)", "%", 0.69),
    ("Fc1ccc(C(OCCN2CCCC2)c2ccc(Br)cc2)cc1 (configuration not stated)", "%", -4.52),
    ("NC(=O)CN1CCCC1=O", "%", 3.55),
    ("NCCc1ccc(O)cc1", "%", -2.82),
    ("CCN1CC2(COC(=O)c3ccccc3N)CCC(OC)C34C5CC6C(OC)CC(O)(C5C6OC)C(O)(C(OC)C23)C14 (configuration not stated)", "%", 5.49),
    ("C[C@]12CC[C@@H](O)C[C@@H]1CC[C@@H]1[C@@H]2CC[C@]2(C)C(=O)CC[C@@H]12", "%", -2.43),
    ("CC(C)(C)NCC(O)c1cc(Cl)c(N)c(Cl)c1 (configuration not stated)", "%", -21.2),
    ("CC(C)[N+](C)(CCC(C(N)=O)(c1ccccc1)c1ccccc1)C(C)C", "%", 5.61),
    ("COc1cc2c3cc1Oc1cc(ccc1O)C[C@@H]1c4c(cc(OC)c(O)c4Oc4ccc(cc4)C[C@H]3N(C)CC2)CCN1C", "%", 7.43),
    ("CCOC(=O)C1=C(C)OC(N)=C(C(=O)OCC)[C@@]12C(=O)N(CC(N)=O)c1ccccc12", "%", 18.1),
    ("CC(C)NC(C)C(=O)c1ccc2ccccc2c1 (configuration not stated)", "%", -0.43),
    ("CCOC(=O)c1cc2c(cn1)[nH]c1ccccc12", "%", -7.79),
    ("NCC(O)c1ccc(O)cc1 (configuration not stated)", "%", -2.27),
    ("O=c1[nH]c2ccccc2n1C1CCN(CCCC(c2ccc(F)cc2)c2ccc(F)cc2)CC1", "%", 41.5),
    ("CC(C)[C@@]1(NC(=O)[C@@H]2C[C@@H]3c4cccc5[nH]cc(c45)C[C@H]3N(C)C2)O[C@@]2(O)[C@@H]3CCCN3C(=O)[C@H](Cc3ccccc3)N2C1=O", "%", -14.9),
]

Measured values drawn from PubChem BioAssay for this set.
